- Protocol Description: self-splicing fitness, log relative to wild type (ln ratio); higher = more splicing; Tetrahymena group I intron in knt gene, E. coli kanamycin selection, DiMSum; sequences stand for … in CUCUCU…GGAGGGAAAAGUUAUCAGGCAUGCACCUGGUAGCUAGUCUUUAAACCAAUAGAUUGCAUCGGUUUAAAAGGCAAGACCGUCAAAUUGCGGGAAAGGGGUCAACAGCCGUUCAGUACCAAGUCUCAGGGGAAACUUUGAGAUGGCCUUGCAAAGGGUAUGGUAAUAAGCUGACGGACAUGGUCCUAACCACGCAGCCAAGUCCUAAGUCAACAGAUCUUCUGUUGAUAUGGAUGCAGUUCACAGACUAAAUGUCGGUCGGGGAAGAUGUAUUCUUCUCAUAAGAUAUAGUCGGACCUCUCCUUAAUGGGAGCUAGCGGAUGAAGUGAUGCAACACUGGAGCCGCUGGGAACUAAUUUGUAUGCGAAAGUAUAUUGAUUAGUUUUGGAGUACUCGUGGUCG;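 further: selection with 25 µg/mL kanamycin versus none on LB agar overnight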
- Experimental Parameters: 37 °C
For each of the sequences below, state its self-splicing fitness (ln).
The answer should be a number; do not append a unit.

Consider the sequence AGAUAGCAAUAUUACGUAAC . State its measured self-splicing fitness (ln).
-2.01

Return value of self-splicing fitness (ln) for input UAGUAGCAAUAUUACGGCUU , no commentary.
0.187

Please give the documented self-splicing fitness (ln) of CAGGAGCAAUAUUACGAAUA
-1.49

Dear colleague, please send me the reported self-splicing fitness (ln) for ACCAAGCAAUAUUACGUGAG when you can.
-0.649

Give a short answer stating reported self-splicing fitness (ln) for CAAGAGCAAUAUUACGAACA .
-2.49

Assign self-splicing fitness (ln) to the following record: UUGUAGCAAUAUUACGCGAA
-1.73

Determine from records and report self-splicing fitness (ln) for AUUAAGCAAUAUUACGUUAA
-1.35

Name the recorded self-splicing fitness (ln) of the sequence listed here: UCCGAGCAAUAUUACGGUUG
-3.07

Kindly indicate its recorded self-splicing fitness (ln). Item: CCGCAGCAAUAUUACGCUCU
-2.18

Input AUUAAGCAAUAUUACGUGGG , output reported self-splicing fitness (ln).
-2.44

Supply reported self-splicing fitness (ln) belonging to this sequence: UAAAAGCAAUAUUACGGCGG
-0.0776

Read off the recorded self-splicing fitness (ln) for GUUGAGCAAUAUUACGAUCA
0.523

Quick one: give measured self-splicing fitness (ln) for AGUAAGCAAUAUUACGGUUU
-0.554

State, in one line, measured self-splicing fitness (ln) of UAGUAGCAAUAUUACGCACA
-0.493

Recall and state the measured self-splicing fitness (ln) for GCUAAGCAAUAUUACGUUAU .
-1.48

State its self-splicing fitness (ln): CGCAAGCAAUAUUACGGUGC
-2.53

Quickly give me recorded self-splicing fitness (ln) for GAUCAGCAAUAUUACGUUAC
-1.19

Quick one: give measured self-splicing fitness (ln) for CUUGAGCAAUAUUACGAUGU
-3.43

// fetch self-splicing fitness (ln) given entry CUAUAGCAAUAUUACGACUU
-1.54

Identify self-splicing fitness (ln) associated with the sequence CUUAAGCAAUAUUACGCGUA
-3.23

Supply recorded self-splicing fitness (ln) for GAUAAGCAAUAUUACGUAGC here.
-0.793

For the sequence CCAGAGCAAUAUUACGCAAG , give its reported self-splicing fitness (ln).
-2.33

Specify reported self-splicing fitness (ln) for the sequence shown: CUUAAGCAAUAUUACGGGUA
-2.75

Identify measured self-splicing fitness (ln) corresponding to CGGUAGCAAUAUUACGACUU
0.365

// fetch self-splicing fitness (ln) given entry UUAGAGCAAUAUUACGUAAG
-1.2

Quickly give me recorded self-splicing fitness (ln) for CAAUAGCAAUAUUACGAUUG
-1.9

Tell me self-splicing fitness (ln) reported for CUCGAGCAAUAUUACGUGAA
-2.93

Return value of self-splicing fitness (ln) for input CACAAGCAAUAUUACGCUAU , no commentary.
-1.58

Write down self-splicing fitness (ln) measured for item CAAGAGCAAUAUUACGGAUU
-3.21

Note self-splicing fitness (ln) for the sequence shown: GUAUAGCAAUAUUACGAGUC
-0.711

Return self-splicing fitness (ln) for the following sequence: GGACAGCAAUAUUACGCUAC
-2.33

Return self-splicing fitness (ln) for the following sequence: AAUGAGCAAUAUUACGCAUU
-2.74

Answer with the recorded self-splicing fitness (ln) for the sequence listed here: CUUAAGCAAUAUUACGAAAG
-1.75

Consider the sequence UAUAAGCAAUAUUACGAGCA . State its measured self-splicing fitness (ln).
-0.234

Where do these numbers come from? They come from the supplement of paper PMC7877785.
